test system: NCI-H522; experiment: Growth inhibition of human NCI-H522 cells after 48 hrs; type: functional; conditions: NCI-H522, 48 h
property: GI50 (nM)
Please give a number only; it is taken to be in nM.

Here's what some known entries look like.
COc1ccc(N(CC(=O)NCCC[Te]c2ccccc2)C(=O)c2ccccc2)cc1; 3090
CC1=C(SCCC(=O)OCC(=O)NCCC[Te]c2ccccc2)C(=O)c2ccccc2C1=O; 2510
COc1ccc(N(CC(=O)NCCC[Te]c2ccccc2)C(=O)CNC(=O)OC(C)(C)C)cc1; 2570

Next molecule, GI50 to be filled in.
Value of measured GI50 for the entry COc1ccc(N(CC(=O)NCCC[Te]c2ccccc2)C(=O)CCSC2=C(C)C(=O)c3ccccc3C2=O)cc1 : 1070

* * *

assay: Growth inhibition of human EKVX cells after 48 hrs; format: functional
Listing: GI50 of selected molecules
Please give a number only; it is taken to be in nM.

COc1ccc(N(CC(=O)NCCC[Te]c2ccccc2)C(=O)c2ccccc2)cc1; 4070

Value of measured GI50 for the entry COc1ccc(N(CC(=O)NCCC[Te]c2ccccc2)C(=O)CCSC2=C(C)C(=O)c3ccccc3C2=O)cc1 : 380

Value of measured GI50 for the entry CC1=C(SCCC(=O)OCC(=O)NCCC[Te]c2ccccc2)C(=O)c2ccccc2C1=O : 1120

Value of measured GI50 for the entry COc1ccc(N(CC(=O)NCCC[Te]c2ccccc2)C(=O)CNC(=O)OC(C)(C)C)cc1 : 324

* * *

Listing: diameter of the inhibition zone (DIZ) of selected compounds
test system: Klebsiella pneumoniae; assay: Antimicrobial activity against Klebsiella pneumoniae assessed as inhibition at 20 ug/6 mm disk after 1 to 2 days by agar diffusion assay; format: functional
Please give a number only; it is taken to be in mm.

Here's what some known entries look like.
COc1ccc(N(CC(=O)NCCC[Se]c2ccccc2)C(=O)/C=C/c2ccccc2)cc1; 0
COc1ccc(N(CC(=O)NCCCSc2ccccc2)C(=O)c2ccccc2)cc1; 0
COc1ccc(N(CC(=O)NCCC[Se]c2ccccc2)C(=O)CNC(=O)OC(C)(C)C)cc1; 0
CC1=C(SCCC(=O)OCC(=O)NCCC[Te]c2ccccc2)C(=O)c2ccccc2C1=O; 13
COc1ccc(N(CC(=O)NCCCSc2ccccc2)C(=O)CNC(=O)OC(C)(C)C)cc1; 0
CC(C)(C)OC(=O)NCC(=O)OCC(=O)NCCC[Te]c1ccccc1; 15

Value of measured diameter of the inhibition zone (DIZ) for the entry COc1ccc(N(CC(=O)NCCCSc2ccccc2)C(=O)CCSC2=C(C)C(=O)c3ccccc3C2=O)cc1 : 0

Value of measured diameter of the inhibition zone (DIZ) for the entry COc1ccc(N(CC(=O)NCCC[Te]c2ccccc2)C(=O)CCSC2=C(C)C(=O)c3ccccc3C2=O)cc1 : 12

Value of measured diameter of the inhibition zone (DIZ) for the entry COc1ccc(N(CC(=O)NCCC[Se]c2ccccc2)C(=O)C#Cc2ccccc2)cc1 : 0

* * *

experiment: Growth inhibition of human HOP92 cells after 48 hrs; format: functional; settings: HOP-92, 48 h
property: GI50 (nM)
Please give a number only; it is taken to be in nM.

CC1=C(SCCC(=O)OCC(=O)NCCC[Te]c2ccccc2)C(=O)c2ccccc2C1=O; 1580

Value of measured GI50 for the entry COc1ccc(N(CC(=O)NCCC[Te]c2ccccc2)C(=O)c2ccccc2)cc1 : 4070

Value of measured GI50 for the entry COc1ccc(N(CC(=O)NCCC[Te]c2ccccc2)C(=O)CNC(=O)OC(C)(C)C)cc1 : 2950

Value of measured GI50 for the entry COc1ccc(N(CC(=O)NCCC[Te]c2ccccc2)C(=O)CCSC2=C(C)C(=O)c3ccccc3C2=O)cc1 : 1450
